Protocol notes: photoluminescence quantum yield (fraction); solvent given as SMILES
Test context: in CO
Give measured photoluminescence quantum yield for each item. Keep answers brief.
The answer should be written as a number, with no unit following it.

What measured photoluminescence quantum yield goes with `C/C(=N\Nc1ccc(C#N)cc1)c1ccccn1` ? 0.28

What measured photoluminescence quantum yield goes with `CN(C)c1ccc2nc(-c3ccc(C=C4C(=O)c5ccccc5C4=O)cc3)sc2c1` ? 0

What measured photoluminescence quantum yield goes with `COCCOCCOCCOc1cc(C=O)c(OCCOCCOCCOC)cc1C=O` ? 0.23

What measured photoluminescence quantum yield goes with `CN1c2ccccc2CCc2ccccc21` ? 0.027

What measured photoluminescence quantum yield goes with `CCC1=C(C)C2=C(C)c3cccn3[B-](F)(F)[N+]2=C1C` ? 0.76

What measured photoluminescence quantum yield goes with `CC1(C)CC(NCc2ccc3ccc4cccc5ccc2c3c45)CC(C)(C)N1` ? 0.14

What measured photoluminescence quantum yield goes with `CCN(CC)c1ccc2c(c1)oc(=O)c1cc3cnn(-c4ccccc4)c3nc12` ? 0.002

What measured photoluminescence quantum yield goes with `Fc1ccc(-c2cc3ccc4cc(-c5ccc(F)cc5)cc5ccc(c2)c3c45)cc1` ? 0.05

What measured photoluminescence quantum yield goes with `Cc1cc(C(F)(F)F)nc2c1ccc1nc(-c3ccc(F)c(F)c3)cn12` ? 0.83

What measured photoluminescence quantum yield goes with `CCC1=C(C)C2=Cc3ccccc3B(O)N2C1=O` ? 0.12

What measured photoluminescence quantum yield goes with `CN1C(C(=O)Nc2ccccn2)=C([O-])c2sccc2S1(=O)=O` ? 0.00214

What measured photoluminescence quantum yield goes with `C(=C\c1nc2ccccc2s1)/c1ccccc1` ? 0.007

What measured photoluminescence quantum yield goes with `C[Si](C)(C)c1ccc2ccc3cccc4ccc1c2c34` ? 0.22

What measured photoluminescence quantum yield goes with `c1ccc2c(-c3cc(-c4nccs4)nc(-c4nccs4)c3)c3ccccc3cc2c1` ? 0.0206

What measured photoluminescence quantum yield goes with `N#Cc1c(-n2nnc3cc(Cl)ccc32)n([C@H]2C[C@H](O)[C@@H](CO)O2)c2ncnc(N)c12` ? 0.008

What measured photoluminescence quantum yield goes with `Cc1cc(O)c(-c2[nH]c(=O)n3c2-c2ccccc2C3=O)cc1Cl` ? 0.3

What measured photoluminescence quantum yield goes with `CN(C)c1ccc(C2=Cc3c4ccccc4cc[n+]3[B-](F)(F)O2)cc1` ? 0.499

What measured photoluminescence quantum yield goes with `O=c1oc2ccc3ccccc3c2nc1-c1ccccc1` ? 0.5

What measured photoluminescence quantum yield goes with `COC(=O)c1ccc(C#Cc2ccc(N(C)C)cc2)cc1` ? 0.001

What measured photoluminescence quantum yield goes with `COc1c2ccccc2c(OC)c2c1c1ccccc1n2C` ? 0.39

What measured photoluminescence quantum yield goes with `CCN1C(=CC=Cc2n(CC)c3cc(Cl)c(Cl)cc3[n+]2CC)N(CC)c2cc(Cl)c(Cl)cc21` ? 0.016

What measured photoluminescence quantum yield goes with `c1ccc2c(c1)cc(-c1cc(-c3nccs3)nc(-c3nccs3)c1)c1ccccc12` ? 0.161

What measured photoluminescence quantum yield goes with `COc1ccc(O)c(-c2[nH]c(=O)n3c2-c2ccccc2C3=O)c1` ? 0.01
